Experiment: Inhibition of Saccharomyces cerevisiae FAS
recordedEndpoint: IC50 (µg/mL)
Express your answer in µg/mL, writing the number without its unit.

Look up IC50 for this compound: "C[C@@H]1O[C@@H](Oc2c(-c3ccc(O)c(O)c3)oc3cc(O)cc(O)c3c2=O)[C@H](O)[C@H](O)[C@H]1O"
50

Proceed to "O=c1c(O[C@@H]2O[C@H](CO)[C@H](O)[C@H](O)[C@H]2O)c(-c2cc(O)c(O)c(O)c2)oc2cc(O)cc(O)c12"
25

Proceed to "C[C@@H]1O[C@@H](Oc2c(-c3ccc(O)cc3)oc3cc(O)cc(O)c3c2=O)[C@H](O)[C@H](O)[C@H]1O"
45

Proceed to "C/C=C/C/C=C/CCC(=O)[C@H]1O[C@H]1C(N)=O"
0.19
